- experiment.notes: Fluoride-triggered (TBAF) chemiluminescent decomposition of dioxetanes in DMSO
- Type: physicochemical
- test.settings: 10 μL of 10^-6 M dioxetane with 50 μL of 1M TBAF in DMSO
Catalogue of molecules with associated t1/2 trig.
Form entry: value (s) — number only.

COC1(c2cccc(O)c2)OOC1(C1CCCCC1)C1CCCCC1 (stereo not shown) [Dioxetane 2i] ... 6
COC1(c2cccc(O[Si](C)(C)C(C)(C)C)c2)OOC12C1CC3CC(C1)CC2C3 (stereo not shown) [Dioxetane 2j] ... 7
COC1(c2cccc(O[Si](C)(C)C(C)(C)C)c2)OOC1(C1CCCCC1)C1CCCCC1 (stereo not shown) [Dioxetane 2h] ... 7

As a next step, examine the molecule that follows.
Form: molecule = COC1(c2cccc(OC(C)=O)c2)OOC1(C(C)C)C(C)C (stereo not shown) [Dioxetane 2c] ; t1/2 trig. = 7
